Origin of values: PubChem BioAssay (NCI)

# Tested on: DU-145 prostate
# method.description: NCI tumour cell line growth inhibition, 48 h
Readings of TGI for the listed molecules

Worked cases, answers included:
# molecule, assayed.target, result
records = [
    ("Cc1ccc2c(c1)C=CC(C#N)N2C(=O)Oc1ccccc1 (stereo not given)", "DU-145 prostate", "42.7 µM"),
    ("CC[CH2][Sn]([CH2]CC)([O]C(=O)Cc1ccc(F)cc1)[O][Sn]([CH2]CC)([CH2]CC)[O]C(=O)Cc1ccc(F)cc1", "DU-145 prostate", "1.8 µM"),
    ("COc1ccc(C2CC(=O)c3c(O)c(OC)c(OC)c(OC)c3O2)cc1O (stereo not given)", "DU-145 prostate", "> 100 µM"),
    ("CNC(=O)Nc1ccccc1", "DU-145 prostate", "> 100 µM"),
    ("C[N+](C)(CCO)CCN1c2ccccc2Sc2ccccc21", "DU-145 prostate", "> 10 µM"),
    ("CCOC(=O)c1cc(C#N)[nH]c1-c1ccsc1", "DU-145 prostate", "58.8 µM"),
]

Please find the next molecule below.
Query: Given the entry Oc1c(CN2CCN(c3ccccc3F)CC2)cc(Br)c2cccnc12 , report its measured TGI.
Reply: 17.7 µM
